Where do the numbers come from? From BindingDB's records for doi:10.1016/j.ejmech.2016.03.076.

List of IC50 values.
- Protocol Description: Inhibition of c-Met in human MKN45 cells assessed as reduction in cell proliferation after 72 hrs by SRB or MTT assay
State the answer as a number, implicitly in nM.

Prompt: Return reported IC50; argument: Cn1cc(-c2ccc3nnc(C(F)(F)c4ccc5ncccc5c4)n3n2)cn1
Completion: 9.5

Prompt: Return reported IC50; argument: Fc1ccc(-c2cnc3nnc(C(F)(F)c4ccc5ncccc5c4)n3n2)cc1
Completion: 0.46
